molecular target: Amine oxidase [flavin-containing] A (Homo sapiens); experiment: Inhibition of human recombinant MAO-A expressed in baculovirus-infected insect cells using p-tyraimne substrate; conditions: read-out: IC50
Sequence (P21397 whole entry): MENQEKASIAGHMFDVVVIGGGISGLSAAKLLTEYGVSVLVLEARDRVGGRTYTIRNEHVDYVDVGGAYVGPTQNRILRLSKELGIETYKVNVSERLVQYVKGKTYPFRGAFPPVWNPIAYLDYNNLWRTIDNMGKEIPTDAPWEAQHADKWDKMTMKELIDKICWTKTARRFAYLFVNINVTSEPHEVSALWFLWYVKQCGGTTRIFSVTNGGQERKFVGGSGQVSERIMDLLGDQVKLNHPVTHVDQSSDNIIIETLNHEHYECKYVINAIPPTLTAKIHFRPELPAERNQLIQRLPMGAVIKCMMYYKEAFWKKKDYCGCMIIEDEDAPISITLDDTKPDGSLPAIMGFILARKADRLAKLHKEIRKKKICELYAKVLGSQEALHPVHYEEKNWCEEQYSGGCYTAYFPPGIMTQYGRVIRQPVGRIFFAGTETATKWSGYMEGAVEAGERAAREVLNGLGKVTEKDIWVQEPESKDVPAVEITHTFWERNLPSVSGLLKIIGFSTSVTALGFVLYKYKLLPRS
Listing of recorded IC50 by entry.

O=C(Cc1ccc(Cl)c(Cl)c1)Nc1ccc2[nH]ncc2c1
> 10 µM
Cn1cc(C(=O)Nc2ccc3[nH]ncc3c2)ccc1=O
> 10 µM
Clc1ccc(/N=C/c2ccc3[nH]ncc3c2)cc1Cl
< 10 µM
O=C(Nc1ccc(Cl)c(Cl)c1)c1ccc2nncn2c1
> 10 µM
O=C(Nc1ccc(O)c(Cl)c1)c1ccc2cn[nH]c2c1
> 10 µM
O=C(Nc1ccc(Cl)c(Cl)c1)c1ccc2[nH]ccc2c1
1.3 µM
O=C(Nc1cc(Cl)cc(Cl)c1)c1ccc2[nH]ncc2c1
> 10 µM
COc1ccc(NC(=O)c2ccc3cn[nH]c3c2)cc1Cl
> 10 µM
O=C(NCc1ccc(Cl)c(Cl)c1)c1ccc2[nH]ncc2c1
> 10 µM
O=C(Nc1ccc2[nH]ncc2c1)c1cccc(Cl)c1Cl
> 10 µM

Fill in IC50 for record `COc1ccc(NC(=O)c2ccc3cn[nH]c3c2)cc1OC`
> 10 µM

In one line, give reported IC50 of the entry `O=C(Nc1ccc2cn[nH]c2c1)c1cnc(N2CCOCC2)c(Cl)c1` .
> 10 µM

Respond only with IC50 recorded for `O=C(Nc1ccc(F)c(Cl)c1)c1ccc2cn[nH]c2c1`
> 10 µM

Please supply the value of reported IC50 for the item `O=C(Nc1ccc2[nH]ncc2c1)c1ccc(Cl)c(Cl)c1`
> 10 µM

###

Documented IC50 across a set of compounds
biological target: Amine oxidase [flavin-containing] B (Rattus norvegicus, UniProt P19643); assay: Inhibition of rat MAO-B from mitochondria-enriched rat liver fractions using p-tyraimne substrate
Sequence (P19643 whole entry): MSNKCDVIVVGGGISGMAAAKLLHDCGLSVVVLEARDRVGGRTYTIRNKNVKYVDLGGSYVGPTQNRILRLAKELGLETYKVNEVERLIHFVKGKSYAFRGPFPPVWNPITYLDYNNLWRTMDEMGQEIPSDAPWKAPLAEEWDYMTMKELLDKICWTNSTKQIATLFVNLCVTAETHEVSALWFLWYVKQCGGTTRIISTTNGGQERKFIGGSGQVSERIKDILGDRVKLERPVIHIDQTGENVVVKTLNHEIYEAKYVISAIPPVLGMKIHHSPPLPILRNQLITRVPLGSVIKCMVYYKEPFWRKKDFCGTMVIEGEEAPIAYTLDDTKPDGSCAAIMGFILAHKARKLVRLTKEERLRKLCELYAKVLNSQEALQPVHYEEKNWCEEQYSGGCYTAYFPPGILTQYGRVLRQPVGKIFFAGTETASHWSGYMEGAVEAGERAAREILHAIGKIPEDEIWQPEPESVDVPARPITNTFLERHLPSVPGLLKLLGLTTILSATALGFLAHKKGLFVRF

Solved cases below.
O=C(Nc1ccc2[nH]ncc2c1)c1cccc(Cl)c1Cl
> 10 µM
COc1ccc(NC(=O)c2ccc3cn[nH]c3c2)cc1Cl
< 10 µM
O=C(Nc1ccc(Cl)c(Cl)c1)c1ccc2nncn2c1
> 10 µM
COc1cc(NC(=O)c2ccc3cn[nH]c3c2)ccc1Cl
> 10 µM

Return value of IC50 for input `Cn1cc(C(=O)Nc2ccc3[nH]ncc3c2)ccc1=O` , no commentary.
> 10 µM

###

species on record: Homo sapiens; experiment: Selectivity index, ratio of IC50 for human recombinant MAO-A to IC50 for human recombinant MAO-B
Ratio IC50 values for the compounds below.

O=C(Cc1ccc(Cl)c(Cl)c1)Nc1ccc2[nH]ncc2c1
> 11

Return Ratio IC50 for the following compound: `O=C(Nc1cc(Cl)cc(Cl)c1)c1ccc2cn[nH]c2c1`
> 29

Given the compound `O=C(Nc1ccc(O)c(Cl)c1)c1ccc2[nH]ncc2c1` , write its reported Ratio IC50.
> 81

Give Ratio IC50 for the following compound: `O=C(Nc1ccc(Cl)c(Cl)c1)c1ccc2cn[nH]c2c1`
> 49

###

biological target: Amine oxidase [flavin-containing] B (Rattus norvegicus, UniProt P19643); assay: Inhibition of rat MAO-B from mitochondria-enriched rat liver fractions using p-tyraimne substrate
pIC50: −log10 of the molar value.
reportedMetric: pIC50

O=C(NCc1ccc(Cl)c(Cl)c1)c1ccc2[nH]ncc2c1
6.08
Cn1ncc2cc(/C=N/c3ccc(Cl)c(Cl)c3)ccc21
8.34

[I] O=C(Nc1ccc(Cl)c(Cl)c1)c1ccc2[nH]ccc2c1
[II] O=C(Nc1cc(Cl)cc(Cl)c1)c1ccc2cn[nH]c2c1
Among I and II , which shows a numerically higher pIC50 result? Please indicate the selected item by its label.
I
(I: 9.00, II: 6.37)

###

biological target: UniProt P19643; assay: Inhibition of rat MAO-B from mitochondria-enriched rat liver fractions using p-tyraimne substrate
pIC50: −log10 of the molar value.
reportedMetric: pIC50

For the molecule `O=C(Nc1ccc(F)c(F)c1)c1ccc2cn[nH]c2c1` , report pIC50.
> 5.00

Tell me pIC50 reported for `O=C(Cc1ccc(Cl)c(Cl)c1)Nc1ccc2[nH]ncc2c1`
< 5.00

Output measured pIC50 for this item: `O=C(Nc1ccc(Cl)c(O)c1)c1ccc2cn[nH]c2c1`
< 5.00
